Subject Of Test: Bromodomain-containing protein 3 (Homo sapiens, UniProt Q15059)
Sequence (Q15059 whole entry, the tested form may be a part): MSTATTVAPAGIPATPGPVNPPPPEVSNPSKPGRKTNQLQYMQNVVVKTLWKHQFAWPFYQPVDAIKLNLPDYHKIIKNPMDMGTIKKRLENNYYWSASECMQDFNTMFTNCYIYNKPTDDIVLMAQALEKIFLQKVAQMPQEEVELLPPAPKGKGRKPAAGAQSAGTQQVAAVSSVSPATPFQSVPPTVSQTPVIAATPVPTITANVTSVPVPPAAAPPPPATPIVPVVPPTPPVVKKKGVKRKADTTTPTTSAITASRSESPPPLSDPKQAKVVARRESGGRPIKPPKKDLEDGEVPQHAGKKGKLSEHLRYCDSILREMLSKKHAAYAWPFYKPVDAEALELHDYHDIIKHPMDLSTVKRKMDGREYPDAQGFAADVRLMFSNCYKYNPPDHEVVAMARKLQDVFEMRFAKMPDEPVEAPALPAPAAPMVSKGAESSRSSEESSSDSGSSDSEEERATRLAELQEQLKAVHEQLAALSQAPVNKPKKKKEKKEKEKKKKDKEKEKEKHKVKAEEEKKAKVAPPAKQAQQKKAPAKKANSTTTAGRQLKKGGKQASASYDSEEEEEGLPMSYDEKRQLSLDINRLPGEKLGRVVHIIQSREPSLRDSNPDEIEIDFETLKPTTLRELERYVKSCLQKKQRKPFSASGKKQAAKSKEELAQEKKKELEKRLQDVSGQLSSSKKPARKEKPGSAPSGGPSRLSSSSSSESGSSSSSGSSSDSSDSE
Measurement Notes: Binding affinity to BRD3 bromodomain 1 to 2 (P24 to P416 amino acids) (unknown origin) using Alexa647-labeled BET-inhibitor as fluorescent probe by bromodomain TR-FRET binding assay
Reported pKi values for the following compounds.
Recall that pKi is obtained by taking minus log10 of the concentration measured in molar.

Some solved entries appear below for comparison.
In [3]: df
Out[3]:
                                smiles_code                           subject_of_test  reported_value
0  Cn1cc2c3c(c[nH]c(=O)c31)-c1cc(CS(C)(=O)=O)ccc1N(c1ccc(F)cc1)C2  Bromodomain-containing protein 3 (Homo sapiens, UniProt Q15059)            7.77
1  Cn1cc2c3c(c[nH]c3c1=O)CN(c1ccc(F)cc1F)c1ccc(CS(C)(=O)=O)cc1-2  Bromodomain-containing protein 3 (Homo sapiens, UniProt Q15059)            8.00

Next compound, please.
Give a short answer stating reported pKi for "Cn1cc2c3c(c[nH]c3c1=O)CN(c1ccccn1)c1ccc(CS(C)(=O)=O)cc1-2" .
8.00
